This collection of values is drawn from the supplement of paper PMC8728848.

Assign glycan array binding signal (z-score) to each entry below.
- ASSAY SYSTEM: GalNAc(b1-3)GalNAc
- MEASUREMENT PROTOCOL: glycan array binding signal (z-score within array); higher = stronger binding
- DETAILS: glycan notation: IUPAC condensed, linker removed
About 410 targets per protein were measured; listed, in parts, are those with the strongest signals and a random draw of the rest.
// return a plain number; no unit text

Query block: Bench note: what glycan array binding signal (z-score) did Sebin2 (Coprinopsis cinerea), A8PE78 (protein) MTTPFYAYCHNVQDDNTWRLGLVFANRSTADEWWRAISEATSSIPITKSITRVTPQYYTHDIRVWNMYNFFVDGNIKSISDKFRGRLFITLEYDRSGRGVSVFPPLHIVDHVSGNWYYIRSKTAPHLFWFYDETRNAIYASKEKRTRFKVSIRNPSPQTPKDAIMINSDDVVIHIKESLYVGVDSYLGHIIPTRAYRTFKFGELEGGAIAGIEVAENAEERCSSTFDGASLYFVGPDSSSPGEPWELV show?
Result block: -0.129

Query block: Further, for Pp2-A2 (Arabidopsis thaliana), Q07098 (protein) MPSNGDLDRQIEQLMECKPLSEADVRTLCDQARAILVEEYNVQPVKCPVTVCGDIHGQFYDLIELFRIGGNAPDTNYLFMGDYVDRGYYSVETVSLLVALKVRYRDRLTILRGNHESRQITQVYGFYDECLRKYGNANVWKYFTDLFDYLPLTALIESQVFCLHGGLSPSLDTLDNIRSLDRIQEVPHEGPMCDLLWSDPDDRCGWGISPRGAGYTFGQDIAAQFNHNNGLSLISRAHQLVMEGFNWCQDKNVVTVFSAPNYCYRCGNMAAILEIGENMEQNFLQFDPAPRQVEPDTTRKTPDYFL ?
Result block: -0.683
